This collection of values is drawn from paper PMC11091863.

System: α-amylase
Test: In vitro α-amylase inhibitory assay
Conditions: 100 μg mL^−1
Assignment: determine reported The α-amylase activity: Inhibitory percentage at 100 μg mL^−1 for the given compounds.
Answers are plain numbers, in %.

Examples with their reported The α-amylase activity: Inhibitory percentage at 100 μg mL^−1 follow.
CCOC(=O)c1cc2cc(S(N)(=O)=O)ccc2oc1=O : 93.4
C[C@H]1O[C@H](O[C@H]2[C@H](O)[C@@H](O)[C@@H](O[C@H]3[C@H](O)[C@@H](O)C(O)O[C@@H]3CO)O[C@@H]2CO)[C@H](O)[C@@H](O)[C@@H]1N[C@H]1C=C(CO)[C@@H](O)[C@H](O)[C@H]1O (stereo partly shown) [Acarbose, reference compound] : 96.5
NS(=O)(=O)c1ccc2oc(=O)c(C(=O)Nc3ccc(Cl)cc3)cc2c1 : 95.4

// switching to the query compound
Value of measured The α-amylase activity: Inhibitory percentage at 100 μg mL^−1 for the entry NS(=O)(=O)c1ccc2oc(=O)c(C(=O)Nc3ccc(F)cc3)cc2c1 : 95.4
